Tested on: SMN2 Splicing D7 (SMN Δ7 transcript)
method: SMN Quantitative Splicing Assay (qPCR)
Type: cell-based, human
setup_conditions: Homo sapiens, Fibroblast, 24 h, SMA patient fibroblasts (GM03813), 2.5 µM to 0.6 nM
pIC50: −log10 of the molar value.
experimental_readout: pIC50

// known answers, use as guide
[[record]]
compound = "CN(c1cnc(-c2cc3c(F)cn(C)c(=O)c3cc2O)nn1)[C@H]1C[C@]2(C)CCC(N2)[C@H]1F"
experimental_readout = "pIC50"
observed_measurement = "7.82 to 11.00"

[[record]]
compound = "CCn1cc(F)c2cc(-c3ncc(N(C)[C@@H]4CC5CC(F)(F)C(C4)N5)nn3)c(O)cc2c1=O (some centres unmarked)"
experimental_readout = "pIC50"
observed_measurement = "6.30 to 7.00"

[[record]]
compound = "CN(c1cnc(-c2cc3occc(=O)c3cc2O)nn1)[C@@H]1C[C@@]2(C)CCC[C@](C)(N2)[C@@H]1F"
experimental_readout = "pIC50"
observed_measurement = "7.00 to 7.29"

[[record]]
compound = "CN(c1cnc(-c2cc3c(F)cn(C)c(=O)c3cc2O)nn1)[C@@H]1CC2CC[C@](C)(N2)[C@@H]1F"
experimental_readout = "pIC50"
observed_measurement = "7.82 to 11.00"

[[record]]
compound = "CCn1cc(F)c2cc(-c3ncc(N(C)[C@H]4C[C@@H]5CCC(N5)[C@H]4F)nn3)c(O)cc2c1=O"
experimental_readout = "pIC50"
observed_measurement = "7.82 to 11.00"


Q: Return value of pIC50 for input Cc1coc2cc(-c3ncc(N(C)C4CC5CCC(N5)[C@@H]4F)nn3)c(O)cc2c1=O (some centres unmarked) , no commentary.
Ans: 7.82 to 11.00

Q: Return value of pIC50 for input `Cc1cc2cc(O)c(-c3ncc(N(C)[C@H]4C[C@@H]5CCCC(N5)[C@H]4F)nn3)cc2cn1` , no commentary.
Ans: 7.82 to 11.00

Q: Return value of pIC50 for input `CN(c1cnc(-c2cc3c(=O)n(C)ccc3cc2O)nn1)[C@@H]1CC2CC[C@H](N2)[C@@H]1F` , no commentary.
Ans: 7.00 to 7.29

Q: Return value of pIC50 for input CN(c1cnc(-c2cc3ncn(C)c(=O)c3cc2O)nn1)C1C[C@]2(C)CCC(N2)[C@H]1F (some centres unmarked) , no commentary.
Ans: 7.30 to 7.80

Q: Return value of pIC50 for input `CN(c1cnc(-c2cc3nccnc3cc2O)nn1)[C@@H]1CC2CC[C@H](N2)[C@@H]1F` , no commentary.
Ans: 6.30 to 7.00

Q: Return value of pIC50 for input CCc1coc2cc(-c3ncc(N(C)[C@H]4C[C@@H]5CC[C@@H](N5)[C@H]4F)nn3)c(O)cc2c1=O (single isomer, unassigned) , no commentary.
Ans: 7.82 to 11.00

Q: Return value of pIC50 for input `CCc1cc(=O)c2cc(-c3ncc(N(C)[C@@H]4C[C@H]5CCC(N5)[C@@H]4F)nn3)c(O)cc2o1` , no commentary.
Ans: 7.00 to 7.29

Q: Return value of pIC50 for input `CN(c1cnc(-c2cc3occc(=O)c3cc2O)nn1)[C@@H]1CC2COC[C@H](N2)[C@@H]1F` , no commentary.
Ans: 6.30 to 7.00

Q: Return value of pIC50 for input `CCc1cc(=O)c2cc(-c3ncc(N(C)[C@H]4C[C@@H]5CCC(N5)[C@H]4F)nn3)c(O)cc2o1` , no commentary.
Ans: 7.82 to 11.00
